Tested on: Pseudomonas aeruginosa
Experiment: Antibacterial activity against Pseudomonas aeruginosa ATCC 27853 after 18 hrs by CLSI based broth microdilution method
Format: functional
Details: ATCC 27853, 18 h
Where a SMILES comes first, the peptide text is derived from it. [ ]: non-standard residue; d: D form.
MIC for assorted compounds

Compound	Parameter Measured	Experimental Value
CC1(C)S[C@@H]2[C@H](NC(=O)Cc3ccccc3)C(=O)N2[C@H]1C(=O)O	MIC	> 128 µM

Prompt: Input CC[C@H](C)[C@H](NC(=O)[C@H](CCCNC(=N)N)NC(=O)[C@@H](CCCCN)NC(=O)[C@H](CC(C)C)NC(=O)[C@H](CC(C)C)NC(=O)CN)C(=O)N[C@H](CCCCN)C(=O)N[C@H](C(=O)N[C@@H](CC(C)C)C(=O)N[C@@H](CC(C)C)C(N)=O)[C@@H](C)O (H-GLL[dK]RI[dK]TLL-NH2) , output reported MIC.
Response: 64 µM

Prompt: Input CCCCCC(=O)NCC(=O)N[C@@H](CC(C)C)C(=O)N[C@@H](CC(C)C)C(=O)N[C@H](CCCCN)C(=O)N[C@@H](CCCNC(=N)N)C(=O)N[C@H](C(=O)N[C@H](CCCCN)C(=O)N[C@H](C(=O)N[C@@H](CC(C)C)C(=O)N[C@@H](CC(C)C)C(N)=O)[C@@H](C)O)[C@@H](C)CC , output reported MIC.
Response: 32 µM
